Quick list: GI50 per entry.
Test system: SF-295
TEST: NCI tumour cell line growth inhibition, 48 h
Calls of active or inactive are those of the source. Rule as the data show it: active = GI50 up to about 1.1 µM and inactive = higher.

{"COMPOUND": "O=C(O)c1ccc(Oc2nc3ccccc3s2)cc1", "GI50": "> 100 µM (inactive)"}
{"COMPOUND": "COc1ccc(-c2c(C#N)c(-c3ccccc3)n(NS(=O)(=O)c3ccccc3)c(=O)c2C#N)cc1", "GI50": "> 100 µM (inactive)"}
{"COMPOUND": "CCN(CC)CCN1C(=O)c2cccc3cc(N)cc(c23)C1=O", "GI50": "9.12 µM (inactive)"}
{"COMPOUND": "NC(=O)c1ccc(Cl)c([N+](=O)[O-])c1", "GI50": "> 100 µM (inactive)"}
{"COMPOUND": "CC1C2(C)OC(=N)C(C#N)(C(c3ccccc3)O2)C1(C#N)C#N (centres undefined)", "GI50": "86.5 µM (inactive)"}
{"COMPOUND": "O=C1c2ccccc2C(=O)N1CCCCCCNOCCCN1C(=O)c2ccccc2C1=O", "GI50": "29.4 µM (inactive)"}
{"COMPOUND": "C[C@@H](NC(=O)Nc1cccc(C(=O)Nc2cc(C(C)(C)C)ccc2C(=O)O)n1)c1ccccc1", "GI50": "25.2 µM (inactive)"}
{"COMPOUND": "COc1cc(C2SCC(=O)N2c2ccc(Cl)c(Cl)c2)cc(OC)c1OC (centres undefined)", "GI50": "29.8 µM (inactive)"}
{"COMPOUND": "COC(=O)C1C(=O)N(CCc2c[nH]c3ccccc23)C[C@@H]2CCC(=O)C[C@H]12 (some centres undefined)", "GI50": "> 100 µM (inactive)"}
